// values below are reported activation at 10 µM
- System: Vero-E6 cells
- Assay explanation: cells
- Type: cell-based
- Measurement parameters: Chlorocebus sabaeus, Vero C1008, 24 h, read-out: PLD_Effect(%) VERO-E6
Structures can show the parent of a compound that is named as a salt.

{"columns": ["Molecule", "activation at 10 µM"],
 "data": [
  ["CNCCC(Oc1ccc(C(F)(F)F)cc1)c1ccccc1 (stereo not drawn) [FLUOXETINE HYDROCHLORIDE]", "54.3%"],
  ["CN1C2CCC1CC(OC(c1ccc(F)cc1)c1ccc(F)cc1)C2 (stereo not drawn)", "61.5%"],
  ["C[C@@H]1CCCN1CCc1cc2cc(-c3ccc(C#N)cc3)ccc2o1 [ABT 239 tartrate]", "66.8%"],
  ["COc1cc(CN(CCN)C(=O)c2cccs2)ccc1OCc1ccccc1", "85.4%"],
  ["CN1CCCC(n2nc(Cc3ccc(Cl)cc3)c3ccccc3c2=O)CC1 (stereo not drawn) [AZELASTINE HYDROCHLORIDE]", "57.2%"],
  ["NCCC(Oc1ccc(C(F)(F)F)cc1)c1ccccc1 (stereo not drawn) [norfluoxetine, reference compound]", "62.2%"],
  ["Cn1ncc(Cl)c1-c1cc(C(=O)N[C@H](CN)Cc2ccc(F)c(F)c2)oc1Cl", "82.6%"],
  ["O=C(O[C@H]1CN2CCC1CC2)N(Cc1cc(F)c(F)c(F)c1)c1cccc(F)c1 [Tarafenacin (D-tartrate)]", "71.4%"],
  ["OCCN1CCN(CC/C=C2/c3ccccc3Sc3ccc(C(F)(F)F)cc32)CC1", "83.6%"],
  ["COc1cc2c(cc1O)C(CCc1ccc(Cl)cc1)N(C)CC2 (stereo not drawn)", "64%"],
  ["CN(CCc1ccc(Cl)c(Cl)c1)CCN1CCCC1", "51.3%"],
  ["CCn1c2ccccc2c2cc(CNCc3ccccc3OC)ccc21 [HLCL-61 (hydrochloride)]", "56.5%"]
]}

====

- Test system: A549-ACE2 cells
- Assay explanation: cells
- Type: cell-based
Property: result_KI (percent effect)

{"columns": ["Compound", "Target or test system", "Property", "Scale unit", "Readout number"],
 "data": [
  ["CCc1cc(Cl)c(OC)c(C(=O)NC[C@@H]2CCCN2CC)c1O [eticlopride, reference compound]", "A549-ACE2 cells", "result_KI", "percent effect", 92.2773],
  ["O[C@H]([C@H](O)[C@@H]1CO1)[C@H]1CO1 [VAL-083, reference compound]", "A549-ACE2 cells", "result_KI", "percent effect", -10.5072],
  ["COc1ccc2[nH]c3c(-c4cccc5ccccc45)nccc3c2c1 [SP-141, reference compound]", "A549-ACE2 cells", "result_KI", "percent effect", -11.253],
  ["O=C1NC(=O)c2cc(Nc3ccccc3)c(Nc3ccccc3)cc21 [CGP-52411, reference compound]", "A549-ACE2 cells", "result_KI", "percent effect", -10.8674]
]}

====

- System: Vero-E6 cells
- Assay explanation: cells
- Assay type: cell-based
- Measurement parameters: Chlorocebus sabaeus, Vero C1008, read-out: PLD EC50 µM
Structures can show the parent of a compound that is named as a salt.

{"columns": ["Compound", "Target or test system", "Scale unit", "EC50"],
 "data": [
  ["COC(=O)C1=C(C)NC(C)=C(C(=O)NCCCN2CCC(c3ccccc3)(c3ccccc3)CC2)C1c1ccc([N+](=O)[O-])cc1 (centres unmarked) [SNAP-5089, reference compound]", "Vero-E6 cells", "µM", 2.01],
  ["COc1cccc([C@@H](C)NCCCc2ccccc2Cl)c1 [tecalcet, reference compound]", "Vero-E6 cells", "µM", 2.6],
  ["Cc1cc(Nc2ncc(Cl)c(Nc3ccccc3S(=O)(=O)C(C)C)n2)c(OC(C)C)cc1C1CCNCC1 [Ceritinib, reference compound]", "Vero-E6 cells", "µM", 2.18],
  ["COc1ccc(NC(=O)c2ccc(-c3ccc(-c4noc(C)n4)cc3C)cc2)cc1N1CCN(C)CC1 [GR-127935, reference compound]", "Vero-E6 cells", "µM", 1.12],
  ["CN(C)CC/C=C1/c2ccccc2Sc2ccc(Cl)cc21 [chlorprothixene hydrochloride, reference compound]", "Vero-E6 cells", "µM", 2.36]
]}

These entries and their values trace back to paper PMC13083723.
